// data source = patent US20140057887A1

- System: HCT116
- Assay Summary: Cytotoxicity in vitro, IC50 on HCT116
- Type: cell-based, human
- Condition: measured by first dissolving cisplatin in water
- Procedure: (5% CO2). […] All the treatments are carried out in triplicate. The cytotoxicity of a compound against a cancer cell line is evaluated.
Test Readout: IC50 (µM)
Just the number in µM, nothing appended.

Reported IC50 for N.N.[Cl][Pt][Cl] [Cisplatin, cisplatin, reference compound] : what is it? 5.5

----------
- Assay Summary: Measurement of water-solubility
- Type: physicochemical
- Condition: water, thermodynamic from solid; ambient temperature and pressure
Test Readout: solubility (µg/mL)
Just the number in µg/mL, nothing appended.

Reported solubility for CN1C=CN(Cc2ccccc2)[CH]1[Pt]([I])([I])[NH]CCN (stereo not shown) : what is it? 3300

----------
- Test system: HL60
- Assay Summary: Percentage of cellular inhibition at 10 μM, HL60
- Type: cell-based
- Condition: final concentration 10 μM; leukaemia
Please use yes (1) whenever Inhibition (in %) {HL60} is not below 90%, and no (0) whenever it is.

Could you tell me if the measured Inhibition (in %) {HL60} of `CCCCCCCn1ccn(C)[c]1=[Pt]([I])[I].c1ccncc1` reaches 90% or more? yes (1)

Could you tell me if the measured Inhibition (in %) {HL60} of `COCCOCCOCCOCCn1ccn(CCOCCOCCOCCOC)[c]1=[Pt]([I])[I].NC1CCCCC1` reaches 90% or more? no (0)

Could you tell me if the measured Inhibition (in %) {HL60} of `CN(C)c1cccc2c(S(=O)(=O)N3CC[N]([Pt]([I])([I])=[c]4n(C)ccn4Cc4ccccc4)CC3)cccc12` reaches 90% or more? yes (1)

Could you tell me if the measured Inhibition (in %) {HL60} of `Cn1ccn(CCC[Si](C)(C)C)[c]1=[Pt]([I])[I].c1ccncc1` reaches 90% or more? yes (1)

Could you tell me if the measured Inhibition (in %) {HL60} of N.N.[Cl][Pt][Cl] [Cisplatin, cisplatin, reference compound] reaches 90% or more? no (0)

Could you tell me if the measured Inhibition (in %) {HL60} of `COCCOCCOCCOCCn1ccn(C)[c]1=[Pt]([I])[I].NC1CCCCC1` reaches 90% or more? no (0)

----------
- Tested on: HCT116
- Assay Summary: Cytotoxicity in vitro, IC50 on HCT116
- Type: cell-based, human
- Condition: colon carcinoma
Would you kindly list IC50 for each of these compounds?
Just the number in µM, nothing appended.

Reported IC50 for CNC(=O)NCC(Cc1ccccc1)NC(=O)NCC(Cc1ccccc1)NC(=O)NCC(Cc1ccccc1)NC(=O)NCC(N)Cc1ccccc1.Cn1ccn(Cc2ccccc2)[c]1=[Pt]([I])[I] (centres unmarked) [Example 39] : what is it? 0.4

Reported IC50 for CCC(C)[C@H]([NH][Pt]([I])([I])=[c]1n(C)ccn1Cc1ccccc1)C(=O)N[C@@H](CCCCNC(=O)OCc1ccccc1Cl)C(=O)NCC(=O)OC (some centres unmarked) [Example 21] : what is it? 1.9

----------
- Tested on: HCT116
- Assay Summary: Percentage of cellular inhibition at 10 μM, HCT116
- Assay type: cell-based, human
- Condition: final concentration 10 μM; colon carcinoma
- Experimental: (5% CO2). […] All the treatments are carried out in triplicate.
Test Readout: Inhibition (in %) {HCT116}
Just the number in %, nothing appended.

Reported Inhibition (in %) {HCT116} for COCCOCCOCCOCCn1ccn(CCOCCOCCOCCOC)[c]1=[Pt]([I])[I].NC1CCCCC1 [Example 14] : what is it? 31.9

Reported Inhibition (in %) {HCT116} for CCC(C)[C@H]([NH][Pt]([I])([I])=[c]1n(C)ccn1Cc1ccccc1)C(=O)N[C@@H](CCCCNC(=O)OCc1ccccc1Cl)C(=O)NCC(=O)OC (stereo partly shown) [Example 21] : what is it? 97.2

Reported Inhibition (in %) {HCT116} for COCCOCCOCCOCCn1ccn(C)[c]1=[Pt]([I])[I].NC1CCCCC1 [Example 13] : what is it? 94.0

Reported Inhibition (in %) {HCT116} for CCCCCCCn1ccn(C)[c]1=[Pt]([I])[I].c1ccncc1 [Example 9] : what is it? 98.2

Reported Inhibition (in %) {HCT116} for N.N.[Cl][Pt][Cl] [Cisplatin, cisplatin, reference compound] : what is it? 2.7

Reported Inhibition (in %) {HCT116} for Cn1ccn(Cc2ccccc2)[c]1=[Pt]([I])([I])[NH]CCO [Example 26] : what is it? 96.6

Reported Inhibition (in %) {HCT116} for Cn1ccn(CCC[Si](C)(C)C)[c]1=[Pt]([I])[I].c1ccncc1 [Example 28] : what is it? 99.4

Reported Inhibition (in %) {HCT116} for Cn1ccn(Cc2ccccc2)[c]1=[Pt]([I])([I])[N]1CCC[C@H]1C(N)=O [Example 25] : what is it? 96.6

Reported Inhibition (in %) {HCT116} for CNC(=O)NCC(Cc1ccccc1)NC(=O)NCC(Cc1ccccc1)NC(=O)NCC(Cc1ccccc1)NC(=O)NCC(N)Cc1ccccc1.Cn1ccn(Cc2ccccc2)[c]1=[Pt]([I])[I] (stereo not shown) [Example 39] : what is it? 96.1

Reported Inhibition (in %) {HCT116} for CN(C)c1cccc2c(S(=O)(=O)N3CC[N]([Pt]([I])([I])=[c]4n(C)ccn4Cc4ccccc4)CC3)cccc12 [Example 30] : what is it? 99.8
